# systemName: cloned human δ receptors (Homo sapiens, UniProt P41143)
# Sequence (P41143 whole entry): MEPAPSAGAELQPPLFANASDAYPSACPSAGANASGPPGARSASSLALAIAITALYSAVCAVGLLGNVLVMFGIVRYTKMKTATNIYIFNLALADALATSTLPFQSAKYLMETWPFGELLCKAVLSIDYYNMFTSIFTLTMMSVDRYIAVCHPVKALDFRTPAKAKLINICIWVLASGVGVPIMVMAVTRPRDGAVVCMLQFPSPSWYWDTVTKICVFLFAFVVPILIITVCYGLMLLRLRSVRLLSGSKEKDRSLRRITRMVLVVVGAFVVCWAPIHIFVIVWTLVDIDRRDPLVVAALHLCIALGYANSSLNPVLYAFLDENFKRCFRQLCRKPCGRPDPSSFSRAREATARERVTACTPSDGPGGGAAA
# experimentNotes: Human δ receptor binding assay (125I-Deltorphin II displacement)
pIC50: −log10 of the molar value.
reportedEndpoint: pIC50

Recorded results for 4 compounds are shown here.
query: Consider the compound CCN(CC)C(=O)c1ccc(C(=C2CCN(Cc3ccco3)CC2)c2cccc(NS(C)(=O)=O)c2)cc1 [Compound 2] . State its measured pIC50.
result: 9.46 to 9.74

query: Consider the compound CCN(CC)C(=O)c1ccc(C(=C2CCN(Cc3cccnc3)CC2)c2cccc(NS(C)(=O)=O)c2)cc1 [Compound 4] . State its measured pIC50.
result: 9.46 to 9.74

query: Consider the compound CCN(CC)C(=O)c1ccc(C(=C2CCN(Cc3ccccc3)CC2)c2cccc(NS(C)(=O)=O)c2)cc1 [Compound 3] . State its measured pIC50.
result: 9.25

query: Consider the compound CCN(CC)C(=O)c1ccc(C(=C2CCN(Cc3cccs3)CC2)c2cccc(NS(C)(=O)=O)c2)cc1 [Compound 1] . State its measured pIC50.
result: 9.46 to 9.74

Below: the item to evaluate.
query: Consider the compound CCN(CC)C(=O)c1ccc(C(=C2CCN(Cc3nccs3)CC2)c2cccc(NS(C)(=O)=O)c2)cc1 [Compound 5] . State its measured pIC50.
result: 9.46 to 9.74

---

# systemName: UniProt:P35372
# Sequence (P35372 whole entry): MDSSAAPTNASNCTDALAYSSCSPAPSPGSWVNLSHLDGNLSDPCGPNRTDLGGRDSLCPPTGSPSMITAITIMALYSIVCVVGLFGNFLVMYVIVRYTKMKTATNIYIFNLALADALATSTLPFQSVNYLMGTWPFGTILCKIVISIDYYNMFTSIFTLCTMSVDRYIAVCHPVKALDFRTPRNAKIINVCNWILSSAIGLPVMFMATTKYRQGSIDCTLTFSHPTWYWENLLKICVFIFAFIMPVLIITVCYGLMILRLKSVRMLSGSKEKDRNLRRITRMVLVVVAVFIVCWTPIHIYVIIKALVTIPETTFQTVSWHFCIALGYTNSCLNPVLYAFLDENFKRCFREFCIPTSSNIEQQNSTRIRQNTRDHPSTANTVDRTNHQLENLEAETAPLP
reportedEndpoint: IC50

Recorded results for 2 compounds are shown here.
query: Consider the compound CCN(CC)C(=O)c1ccc(C(=C2CCN(Cc3ccco3)CC2)c2cccc(NS(C)(=O)=O)c2)cc1 [Compound 2] . State its measured IC50.
result: 77.9 to 301 nM

query: Consider the compound CCN(CC)C(=O)c1ccc(C(=C2CCN(Cc3nccs3)CC2)c2cccc(NS(C)(=O)=O)c2)cc1 [Compound 5] . State its measured IC50.
result: 77.9 to 301 nM

Next:
query: Consider the compound CCN(CC)C(=O)c1ccc(C(=C2CCN(Cc3cccs3)CC2)c2cccc(NS(C)(=O)=O)c2)cc1 [Compound 1] . State its measured IC50.
result: 77.9 to 301 nM

query: Consider the compound CCN(CC)C(=O)c1ccc(C(=C2CCN(Cc3cccnc3)CC2)c2cccc(NS(C)(=O)=O)c2)cc1 [Compound 4] . State its measured IC50.
result: 77.9 to 301 nM

query: Consider the compound CCN(CC)C(=O)c1ccc(C(=C2CCN(Cc3ccccc3)CC2)c2cccc(NS(C)(=O)=O)c2)cc1 [Compound 3] . State its measured IC50.
result: 35 nM

---

# systemName: cloned human δ receptors (Homo sapiens)
# Construct: expressed in transfected cells; host or cells: HEK-293S cells
# experimentNotes: Human δ receptor functional assay (GTP[γ]35S binding), high and low receptor expression
# Format: biochemical
# conditionContext: Table 2; lower expression; relative to SNC80; range over compounds 1,2,4,5; read-out: Human δ %EMax (low)
reportedEndpoint: Emax

query: Consider the compound CCN(CC)C(=O)c1ccc(C(=C2CCN(Cc3nccs3)CC2)c2cccc(NS(C)(=O)=O)c2)cc1 [Compound 5] . State its measured Emax.
result: 106 to 126%

query: Consider the compound CCN(CC)C(=O)c1ccc(C(=C2CCN(Cc3cccnc3)CC2)c2cccc(NS(C)(=O)=O)c2)cc1 [Compound 4] . State its measured Emax.
result: 106 to 126%

query: Consider the compound CCN(CC)C(=O)c1ccc(C(=C2CCN(Cc3cccs3)CC2)c2cccc(NS(C)(=O)=O)c2)cc1 [Compound 1] . State its measured Emax.
result: 106 to 126%

Next:
query: Consider the compound CCN(CC)C(=O)c1ccc(C(=C2CCN(Cc3ccco3)CC2)c2cccc(NS(C)(=O)=O)c2)cc1 [Compound 2] . State its measured Emax.
result: 106 to 126%
